# Experiment Description: inhibitors of fibronectin matrix deposition, primary screen, AH1F cells, Alexa488-fibronectin fluorescence, plate reader (AID 743247);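 further: positive control wells lacked labelled fibronectin entirely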
# Condition Description: AH1F fibroblasts, overnight, at 12.6 µM, active compounds read high
The campaign covered roughly 350,000 compounds. About 300 (0.086%) were called active. The full list was thinned out, with actives kept by preference.
Listed here: items and their measured inhibition.

[
  {
    "Compound": "O=C(C[C@@H]1CC[C@@H](NC(=O)Nc2ccc(F)cc2)[C@H](CO)O1)NCCN1CCCC1",
    "inhibition / %": 0.829
  },
  {
    "Compound": "CC(=O)Nc1ccc2c(c1)CC(=O)N(C)C[C@H](C)[C@H](CN(C)S(C)(=O)=O)O2",
    "inhibition / %": -0.444
  },
  {
    "Compound": "CC(=O)N(C)C[C@H]1Oc2ncc(C#Cc3ccc(F)cc3)cc2C(=O)N([C@H](C)CO)C[C@@H]1C",
    "inhibition / %": 11.6
  },
  {
    "Compound": "C[C@@H]1CC=CC[C@@H](c2ccccc2)NC(=O)[C@H](C)N(C)C(=O)c2ccccc2O1 (mixture of isomers)",
    "inhibition / %": -2.82
  }
]

---

# Experiment Description: inhibitors of fibronectin matrix deposition, primary screen, AH1F cells, Alexa488-fibronectin fluorescence, plate reader (AID 743247);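 further: positive control wells lacked labelled fibronectin entirely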
# Condition Description: AH1F fibroblasts, overnight, at 12.6 µM, active compounds read high
About 300 (0.086%) of roughly 350,000 compounds were called active. The full list was thinned out, with actives kept by preference.
Assay Endpoint: inhibition (%)

[
  {
    "Compound": "N#Cc1ccc(-c2ccc(C3[C@@H]4CN(S(=O)(=O)c5cccc(Cl)c5)C[C@H]3N4)cc2)cc1 (some centres undefined)",
    "Test Result": -6.82
  },
  {
    "Compound": "CCc1nc2c(OCCOc3ccccc3)cccn2c1N(C)C(=O)c1ccccc1F",
    "Test Result": -0.297
  },
  {
    "Compound": "CCc1nc2c(OCCc3cccc(OC)c3)cccn2c1N(C)C(=O)c1ccc(C)cc1",
    "Test Result": 30.8
  },
  {
    "Compound": "CCc1nc2c(OCCOc3ccccc3)cccn2c1N(C)C(=O)c1ccc(OC)cc1",
    "Test Result": 5.55
  },
  {
    "Compound": "C[C@@H]1CC=CC[C@H](c2ccc(F)cc2)NC(=O)[C@@H](Cc2ccccc2)N(C)C(=O)c2ccccc2O1 (mixture of isomers)",
    "Test Result": 7.06
  },
  {
    "Compound": "CC(C)NC(=O)N[C@@H]1C=C[C@@H](CC(=O)N2CCCCC2)O[C@@H]1CO",
    "Test Result": -8.74
  },
  {
    "Compound": "CN(C)CC(=O)N[C@@H]1CC[C@H](CCn2cc(C3CCCC3)nn2)O[C@H]1CO",
    "Test Result": 5.53
  },
  {
    "Compound": "COCC(=O)N1CC2(CN(S(C)(=O)=O)C2)c2c(n(C)c3cc(OC)ccc23)[C@@H]1CO",
    "Test Result": -4.29
  },
  {
    "Compound": "C=C(C)C[C@H]1CCn2cc(nn2)COCCNC1=O",
    "Test Result": -4.67
  }
]

---

# Experiment Description: inhibitors of fibronectin matrix deposition, primary screen, AH1F cells, Alexa488-fibronectin fluorescence, plate reader (AID 743247);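 further: positive control wells lacked labelled fibronectin entirely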
# Condition Description: AH1F fibroblasts, overnight, at 12.6 µM
Screen size: about 350,000 compounds; about 300 (0.086%) were called active.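 The calls were made as follows: active = mean inhibition across replicates of 30% or more, regardless of how many single replicates reach that level; inconclusive = mean under 30% yet at least half of replicates reach 30%; inactive = the rest.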 Only a selection was taken, and actives are over-represented in it overall.
Classes used: active, inactive

[
  {
    "Compound": "CC(=O)N1C[C@@H]2C(c3ccccc3)[C@@H](C1)N2C(=O)NC(C)C (stereo partly drawn)",
    "Classification": "inactive"
  },
  {
    "Compound": "Cc1cccc(S(=O)(=O)N2CC[C@@H]3[C@H]2c2cc(C#Cc4ccccc4F)ccc2N[C@@H]3CO)c1",
    "Classification": "inactive"
  },
  {
    "Compound": "O=C(NCc1ccc(F)cc1)[C@@H]1[C@@H](CO)[C@@H]2Cn3c(cccc3=O)[C@@H]2N1C(=O)c1cccnc1",
    "Classification": "inactive"
  },
  {
    "Compound": "CC(=O)c1ccc(Nc2nc(C(N)c3ccccc3)cs2)cc1 (stereo not drawn)",
    "Classification": "active"
  },
  {
    "Compound": "O=C1NCCOCc2cn(nn2)CC[C@@H]1Cc1ccccc1",
    "Classification": "inactive"
  },
  {
    "Compound": "CC(=O)Nc1cccc2c1O[C@@H](CN(C)C(C)=O)[C@@H](C)CN(C)C2=O",
    "Classification": "inactive"
  },
  {
    "Compound": "CC(C)NC(=O)N(C)C[C@@H]1OCCCC[C@H](C)Oc2ccc(NC(=O)Nc3ccccc3)cc2C(=O)N([C@H](C)CO)C[C@@H]1C",
    "Classification": "inactive"
  },
  {
    "Compound": "COc1ccccc1NC(=O)N[C@H]1C=C[C@@H](CC(=O)N[C@@H](C)c2ccccc2)O[C@@H]1CO",
    "Classification": "inactive"
  },
  {
    "Compound": "CNC[C@@H]1Oc2ccc(NC(C)=O)cc2CC(=O)N(C)C[C@@H]1C",
    "Classification": "inactive"
  },
  {
    "Compound": "CC(=O)c1ccc(Nc2nc(C(N)c3ccccc3Cl)cs2)cc1 (stereo not drawn)",
    "Classification": "inactive"
  },
  {
    "Compound": "O=C(C[C@@H]1C=C[C@@H](NC(=O)c2cccnc2)[C@H](CO)O1)NCc1ccncn1",
    "Classification": "inactive"
  },
  {
    "Compound": "CO[C@@H]1CN(C)C(=O)c2cc(NC(=O)C3CC3)ccc2OC[C@@H](C)N(C(=O)NC(C)C)C[C@@H]1C",
    "Classification": "inactive"
  },
  {
    "Compound": "CN(C)C(=O)c1ccc(-c2ccc(C3[C@@H]4CN(S(=O)(=O)c5cccc(Cl)c5)C[C@H]3N4)cc2)cc1 (stereo partly drawn)",
    "Classification": "inactive"
  },
  {
    "Compound": "O=C1CCC(=O)N[C@H](c2ccccc2)C/C=C\\CCN1",
    "Classification": "inactive"
  },
  {
    "Compound": "CC(=O)N1[C@H](CO)[C@@H](c2ccc(-c3ccc(F)cc3)cc2)[C@H]1CNC(=O)C1CC1",
    "Classification": "inactive"
  },
  {
    "Compound": "O=C(Nc1cc(F)ccc1F)N[C@H]1CC[C@H](CCn2cc(C3CCCC3)nn2)O[C@@H]1CO",
    "Classification": "inactive"
  },
  {
    "Compound": "C[C@H]1CN(C)C(=O)c2cccc(N(C)C)c2O[C@@H]1CN(C)C",
    "Classification": "inactive"
  },
  {
    "Compound": "CC(C)NC(=O)Nc1ccc2c(c1)CC(=O)N(C)C[C@@H](C)[C@@H](CN(C)C(=O)OC(C)(C)C)O2",
    "Classification": "inactive"
  }
]

---

# Experiment Description: inhibitors of fibronectin matrix deposition, primary screen, AH1F cells, Alexa488-fibronectin fluorescence, plate reader (AID 743247);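 further: positive control wells lacked labelled fibronectin entirely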
# Condition Description: AH1F fibroblasts, overnight, at 12.6 µM, active compounds read high
Among all 350,000 compounds or so, about 300 (0.086%) were called active. This excerpt belongs to a sample that is enriched for actives.

[
  {
    "Structure": "CNC[C@H]1Oc2ccc(NC(=O)NC(C)C)cc2C(=O)N(C)C[C@@H]1C",
    "inhibition, %": -10.1
  },
  {
    "Structure": "COCC(=O)Nc1ccc2c(c1)OC[C@@H](C)N(Cc1ccccc1C(=O)O)C[C@@H](C)[C@H](OC)CN(C)C2=O",
    "inhibition, %": -5.62
  },
  {
    "Structure": "COc1ccc(S(=O)(=O)N2C[C@H](O)COC[C@@H]3O[C@H](CC(=O)NCCN4CCCCC4)CC[C@H]32)cc1",
    "inhibition, %": 4.18
  },
  {
    "Structure": "O=C1N[C@H](c2ccccc2)COCc2cn(nn2)CC[C@@H]1Cc1ccc(Cl)cc1",
    "inhibition, %": -8.81
  }
]

---

# Experiment Description: inhibitors of fibronectin matrix deposition, primary screen, AH1F cells, Alexa488-fibronectin fluorescence, plate reader (AID 743247);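 further: positive control wells lacked labelled fibronectin entirely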
# Condition Description: AH1F fibroblasts, overnight, at 12.6 µM
Out of some 350,000 compounds screened, about 300 (0.086%) were called active.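 Rule for the calls: active = mean inhibition across replicates of 30% or more, regardless of how many single replicates reach that level; inconclusive = mean under 30% yet at least half of replicates reach 30%; inactive = the rest.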 The entries come from a sample that favours actives as a whole.
Classes used: class 1 (active), class 0 (inactive)

[
  {
    "Compound": "O=C(OCC(O)C(O)COC(=O)c1ccccc1)c1ccccc1 (stereo not drawn)",
    "Classification": "class 1"
  },
  {
    "Compound": "CN(C)C(=O)c1ccc(-c2ccc([C@H]3[C@H](CO)N4C(=O)CN(C(=O)C5CCCC5)C[C@@H]34)cc2)cc1",
    "Classification": "class 0"
  },
  {
    "Compound": "CCCC(=O)Nc1ccc2c(c1)OC[C@H](C)N(C(=O)CC)C[C@H](C)[C@@H](OC)CN(C)C2=O",
    "Classification": "class 0"
  },
  {
    "Compound": "C[C@H](CO)N1C[C@H](C)[C@@H](CN(C)Cc2ccc(Cl)c(Cl)c2)Oc2ccc(NC(=O)Cn3cnnn3)cc2CC1=O",
    "Classification": "class 0"
  },
  {
    "Compound": "CC(=O)N1[C@H](CO)[C@H](c2ccccc2)[C@H]1CN(C(=O)c1ccccc1F)C(C)C",
    "Classification": "class 0"
  },
  {
    "Compound": "CN(C)CC(=O)N1CC2(C1)[C@H](c1ccccc1)[C@H](CO)N2C(=O)C1CC1",
    "Classification": "class 0"
  },
  {
    "Compound": "C/C=C/c1ccc(C2[C@H]3CNC[C@@H]2N3CC2CCOCC2)cc1 (stereo partly drawn)",
    "Classification": "class 0"
  },
  {
    "Compound": "COc1ccc(S(=O)(=O)Nc2ccc3c(c2)C(=O)N(C)C[C@@H](OC)[C@H](C)CN(C(=O)NC(C)C)[C@H](C)CO3)cc1",
    "Classification": "class 0"
  }
]
